Listed here: items and their measured pIC50.
TARGET_OR_TEST_SYSTEM: Cdc7/Dbf4 (Homo sapiens)
Sequence (O00311 whole entry, species assumed): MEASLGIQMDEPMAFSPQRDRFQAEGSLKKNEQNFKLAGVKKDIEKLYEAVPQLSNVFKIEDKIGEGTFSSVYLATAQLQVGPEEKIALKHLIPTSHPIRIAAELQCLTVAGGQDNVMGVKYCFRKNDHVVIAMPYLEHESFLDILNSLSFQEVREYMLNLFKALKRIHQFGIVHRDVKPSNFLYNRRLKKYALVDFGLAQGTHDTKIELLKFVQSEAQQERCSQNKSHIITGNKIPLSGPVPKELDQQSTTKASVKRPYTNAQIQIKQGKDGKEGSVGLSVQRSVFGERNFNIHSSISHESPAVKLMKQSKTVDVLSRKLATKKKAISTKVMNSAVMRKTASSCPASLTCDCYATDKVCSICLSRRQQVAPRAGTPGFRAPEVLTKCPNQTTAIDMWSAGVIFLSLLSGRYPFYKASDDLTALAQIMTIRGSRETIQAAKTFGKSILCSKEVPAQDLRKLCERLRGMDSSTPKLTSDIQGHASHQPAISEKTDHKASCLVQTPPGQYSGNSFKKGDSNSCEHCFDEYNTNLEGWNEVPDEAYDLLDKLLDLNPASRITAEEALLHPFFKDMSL
Sequence (Q9UBU7 whole entry partner, species assumed): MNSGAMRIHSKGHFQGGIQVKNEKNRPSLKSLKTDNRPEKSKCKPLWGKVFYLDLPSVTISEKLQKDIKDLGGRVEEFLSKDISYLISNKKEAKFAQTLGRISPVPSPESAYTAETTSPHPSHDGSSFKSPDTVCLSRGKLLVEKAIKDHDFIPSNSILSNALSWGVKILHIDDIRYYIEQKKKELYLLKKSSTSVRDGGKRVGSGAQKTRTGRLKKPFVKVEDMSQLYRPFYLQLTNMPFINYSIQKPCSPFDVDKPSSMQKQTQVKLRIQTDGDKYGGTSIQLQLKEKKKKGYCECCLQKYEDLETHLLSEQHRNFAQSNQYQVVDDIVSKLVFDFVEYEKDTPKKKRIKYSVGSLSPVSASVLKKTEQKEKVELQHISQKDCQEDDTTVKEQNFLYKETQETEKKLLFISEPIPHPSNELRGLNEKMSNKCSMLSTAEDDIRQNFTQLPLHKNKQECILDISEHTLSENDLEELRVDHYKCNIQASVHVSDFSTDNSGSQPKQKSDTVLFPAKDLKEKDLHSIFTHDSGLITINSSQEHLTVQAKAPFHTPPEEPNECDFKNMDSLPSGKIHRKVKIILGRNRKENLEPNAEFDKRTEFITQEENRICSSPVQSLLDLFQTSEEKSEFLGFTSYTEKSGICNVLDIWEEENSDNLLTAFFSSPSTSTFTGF
PROCEDURE_SUMMARY: Inhibition assay of Cdc7/Dbf4 activity (Dowex resin capture, 33P-ATP, MCM2 substrate)
ASSAY_CONDITIONS: MCM2 6 μM, ATP 2 μM, Cdc7/Dbf4 2 nM, 60 minutes at room temperature
pIC50: −log10 of the molar value. Counter-ions that a name gives are not always drawn.

>  <COMPOUND>
CC1CNC(=O)c2cc(-c3ccnc(N)n3)[nH]c21 (racemic)

>  <pIC50>
8.10

$$$$
>  <COMPOUND>
O=C1NCC(c2ccccc2)c2[nH]c(-c3ccncn3)cc21 (stereo not shown) [hydrochloride]

>  <pIC50>
7.49

$$$$
>  <COMPOUND>
O=C1NCCc2[nH]c(-c3ccnc(NCC4CCCCC4)n3)cc21

>  <pIC50>
6.17

$$$$
>  <COMPOUND>
CC1CNC(=O)c2cc(-c3ccnc(N)n3)[nH]c21 (single isomer, unassigned)

>  <pIC50>
8.40

$$$$
